system: ABCG2 E211Q (Homo sapiens, UniProt Q9UNQ0, E211Q)
Construct: full-length ABCG2-WT in membrane vesicles
Sequence (Q9UNQ0 whole entry E211Q): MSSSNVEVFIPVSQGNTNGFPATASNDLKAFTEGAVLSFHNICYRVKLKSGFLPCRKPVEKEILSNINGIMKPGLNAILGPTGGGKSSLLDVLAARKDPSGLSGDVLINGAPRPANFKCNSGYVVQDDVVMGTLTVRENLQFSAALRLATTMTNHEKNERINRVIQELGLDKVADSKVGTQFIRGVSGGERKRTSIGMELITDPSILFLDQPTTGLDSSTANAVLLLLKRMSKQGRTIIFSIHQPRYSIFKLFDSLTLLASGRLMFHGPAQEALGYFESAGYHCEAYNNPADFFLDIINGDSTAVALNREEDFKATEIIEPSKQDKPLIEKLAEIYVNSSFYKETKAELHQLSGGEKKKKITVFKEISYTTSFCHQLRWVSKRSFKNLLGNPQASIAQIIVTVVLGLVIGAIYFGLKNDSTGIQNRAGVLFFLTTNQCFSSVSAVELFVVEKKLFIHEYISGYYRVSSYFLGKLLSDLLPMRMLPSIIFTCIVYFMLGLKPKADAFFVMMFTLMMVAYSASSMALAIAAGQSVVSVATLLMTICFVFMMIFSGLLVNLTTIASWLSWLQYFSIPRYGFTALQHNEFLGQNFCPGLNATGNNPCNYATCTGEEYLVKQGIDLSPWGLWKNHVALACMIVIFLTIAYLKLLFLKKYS
protocol-notes: biochemical
condition: thermal stabilization, without ATP
endpoint-label: pEC50
Please treat pEC50 as minus the base-10 logarithm of the molar concentration.

IN: # pEC50 lookup, item `CCOc1ccc(-c2nc3cc(-c4nc5cc(N6CCN(C)CC6)ccc5[nH]4)ccc3[nH]2)cc1`
OUT: 4.80

###

Listed next: entries and their corresponding pIC50.
system: ABCG2 (Homo sapiens, UniProt Q9UNQ0)
Sequence (Q9UNQ0 whole entry): as the sequence (Q9UNQ0 whole entry E211Q) above, with Q211E counted along it
protocol-notes: cell-based
Parameters: full-length ABCG2-WT in MEF cells; species or system Abcg2-KO MEFs expressing human ABCG2-WT; Inhibition of ABCG2-mediated Hoechst 33342 efflux; intracellular Hoechst 33342 fluorescence accumulation, normalized to vector control
condition: 0.5 uM Hoechst 33342 substrate, 2 h, 37 °C; read-out: IC50 for transport inhibition in WT
Bear in mind: pIC50 is minus log10 of a mol/L concentration; give just that figure.

IN: Value lookup for pIC50; key = `CNC(=O)c1cc(Oc2ccc(NC(=O)Nc3ccc(Cl)c(C(F)(F)F)c3)cc2)ccn1`
OUT: 5.36

IN: `CS(=O)(=O)CCNCc1ccc(-c2ccc3ncnc(Nc4ccc(OCc5cccc(F)c5)c(Cl)c4)c3c2)o1` ?
OUT: 7.30

IN: Repeat for the following molecule: COc1cc2nccc(Oc3ccc(NC(=O)C4(C(=O)Nc5ccc(F)cc5)CC4)cc3)c2cc1OC [Cabozantinib]
OUT: 5.62

IN: Try `CCCS(=O)(=O)Nc1ccc(F)c(C(=O)c2c[nH]c3ncc(-c4ccc(Cl)cc4)cc23)c1F` next.
OUT: 5.38

IN: Follow-up item: `C#Cc1cccc(Nc2ncnc3cc(OCCOC)c(OCCOC)cc23)c1`
OUT: 6.11
